Entries and their GI50
- Test system: LOX IMVI
- method-description: NCI tumour cell line growth inhibition, 48 h
Activity calls are given as the source filed them. No stated cut-off is given here; in the data, active = GI50 up to about 1.1 µM and inactive = higher.

Here are 5 compounds together with their reported answers.
{"compound": "CCOC(=O)/C(C#N)=C(/NNc1ccccc1)c1ccncc1C(=O)O", "GI50": "2.81 µM (inactive)"}
{"compound": "CC1CCCC(C(O)CC2CC(=O)NC(=O)C2)C1O (stereo unspecified)", "GI50": "> 100 µM (inactive)"}
{"compound": "CC1=NCCc2cc3[nH]c4ccccc4c3cc21", "GI50": "12.6 µM (inactive)"}
{"compound": "CCCCCCCCCCOC1C(C(O)CNCCCN(C)C)OC2OC3(CCCCC3)OC21 (stereo unspecified)", "GI50": "1.09 µM (active)"}
{"compound": "S=C(S)N1CCN(c2ccc(Cl)c(Cl)c2)CC1", "GI50": "16.6 µM (inactive)"}

**Query** Test system LOX IMVI; read-out GI50; what value for "CC(=N/NC(=S)N1CCCCC1)/C(C)=N\NC(=S)N1CCCCC1" ?
**Result** 3.15 µM (inactive)

**Query** Likewise for "CC(C)=CC(=O)c1[nH]c2ccccc2c1CC(=O)NCCc1c[nH]cn1" ?
**Result** > 100 µM (inactive)

**Query** Would you mind doing "COc1ccc2o/c(=N\c3ccc(F)cc3)c(C(N)=O)cc2c1" as well?
**Result** > 100 µM (inactive)

**Query** Now the compound CC1CCC2C(C)C(OC(=O)CCC(=O)O)OC3OC4(C)CCC1C32OO4 (stereo unspecified)
**Result** 1.06 µM (active)

**Query** Now consider CC(=O)OC(C)c1cc2c(s1)C(=O)c1ccsc1C2=O (stereo unspecified) .
**Result** 0.0117 µM (active)

**Query** Follow-up item: "CC(=O)OCCOCNC(=S)N/N=C/c1ccc([N+](=O)[O-])s1"
**Result** 33.4 µM (inactive)

**Query** Subsequent entry: "c1ccc(/N=C2\SC(=NNc3ccccc3)S\C2=N/c2ccccc2)cc1"
**Result** 13 µM (inactive)

* * *

- Test system: CCRF-CEM
- method-description: NCI tumour cell line growth inhibition, 48 h
Activity calls are given as the source filed them. No stated cut-off is given here; in the data, active = GI50 up to about 1.1 µM and inactive = higher.
The categories you may choose from are true (active), false (inactive)

A selection of reference data follows.
{"molecule": "COC(=O)c1c(C)cccc1C1CN=NC12Cc1cccc(C)c1C2=O (centres undefined)", "answer-label": "false"}
{"molecule": "CCOC(=O)N1c2ccccc2S(=O)(=O)c2ccccc21", "answer-label": "false"}
{"molecule": "CCN(CC)COC(=S)S", "answer-label": "true"}
{"molecule": "Nc1ccc(/N=N/c2ccc(-c3ccc(/N=N/c4c(S(=O)(=O)O)cc5cc(S(=O)(=O)O)c(/N=N/c6ccc([N+](=O)[O-])cc6)c(N)c5c4O)cc3)cc2)c2cc(S(=O)(=O)O)ccc12", "answer-label": "false"}
{"molecule": "CCn1c2ccc(C(=O)CCCN(C)C)cc2c2cc(C(=O)CCCN(C)C)ccc21", "answer-label": "true"}

**Query** // outcome(item) with item = "CC(C)C(=O)N1Cc2cc(Cl)cc(Cl)c2OC(=O)c2ccccc21"
**Result** false

**Query** Now consider "COc1nc2c(OC)cccc2c(OC)c1C=O" .
**Result** false

**Query** Lookup "COc1ccc(/C=c2\sc3n(c2=O)CCN=3)cc1"
**Result** false

**Query** Follow-up entry: COc1cc2cc(C(=O)N3CC(CCl)c4ccc([N+](C)(C)Cc5ccccc5[N+](=O)[O-])cc43)[nH]c2c(OC)c1OC (centres undefined)
**Result** true

**Query** Proceed to OCC(O)C(O)c1nn(-c2ccccc2)c2nc3cc(Cl)c(Cl)cc3nc12 (centres undefined)
**Result** false

**Query** "Cc1ccccc1C(=O)N1CCc2c([nH]c3ccccc23)C1" , same question.
**Result** false

Measured values drawn from ChEMBL document CHEMBL1201862 for this set.
